B1: EEHEE_rd4_0647 (parent)
chain: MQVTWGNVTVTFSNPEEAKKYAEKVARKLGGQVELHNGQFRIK

- Variants of: B1
- Assay method text: folding stability dG (cDNA display proteolysis); higher = more stable
- Experimental parameters: PBS, room temperature
Readout name: folding stability dG (kcal/mol)
Give bare numbers, in kcal/mol.

Hi there! I need folding stability dG for each item below, if you can.
1. H36S
2. I42G
3. E23W
4. P15W
5. T11H
6. G31L
7. V33Q
8. F40T

Reply:
2.6
0.609
2.73
3.08
2.72
2.6
0.541
0.626

I have 7 variants here; please give me folding stability dG for each one.
1. A26S
2. R41M
3. N14F
4. S13T
5. Q32C
6. Q32T
7. N7R

Reply:
1.71
2.95
1.98
2.83
3.47
3.35
2.64

For every item below, please supply its folding stability dG.
1. R27D
2. V8L
3. M1H

Reply:
[2.18, 2.45, 2.9]

Parameters: items (list). Returns: folding stability dG for each item.
1. K20E
2. N7Q

Reply:
1. 2.73
2. 2.49

Please state folding stability dG for every variant in the list that follows.
1. K28S
2. R41Y

Reply:
1: 2.51; 2: 3.35
